- System: PAF-induced hypotension
- method_description: Inhibitory action on PAF-induced hypotension in rats
- Assay type: in vivo, rat (Sprague-Dawley)
- details: Rattus norvegicus, iv, 5 min; i.v., 0.01 mg/kg, 5 min.; read-out: Inhibitory Rate (Lowering of Blood Pressure)
Listed molecules paired with reported inhibition in vivo at 0.01 mg/kg
Your answer should be a number followed by the unit of measure.

Illustrative cases are given below, each with its answer.
molecule="CCC[n+]1cc(Cl)cc(C(=O)N(CCC(=O)NCCOC(=O)N2CCc3ccccc3C2)c2ccccc2)c1 [Production Example 88]" study_target="PAF-induced hypotension" reading=95%
molecule="CCC[n+]1cc(Br)cc(C(=O)N(CCOC(=O)NCCOc2cccc3ccccc23)c2ccccc2)c1 [Production Example 7]" study_target="PAF-induced hypotension" reading=76%
molecule="CCC[n+]1cc(Br)cc(C(=O)N(CCOC(=O)NCCOC(=O)Nc2cccc3ccccc23)c2ccccc2)c1 [Production Example 10]" study_target="PAF-induced hypotension" reading=79%
molecule="CCC[n+]1cc(Br)cc(C(=O)N(CCC(=O)NCCOC(=O)Nc2cccc3ccccc23)c2ccccc2)c1 [Production Example 90]" study_target="PAF-induced hypotension" reading=69%
molecule="CCC[n+]1cc(Br)cc(C(=O)N(CCC(=O)NCCOC(=O)N2CCc3ccccc3C2)c2ccccc2)c1 [Production Example 87]" study_target="PAF-induced hypotension" reading=91%

// below: inhibition in vivo at 0.01 mg/kg requested for another molecule
Input CCC[n+]1cc(Br)cc(C(=O)N(CCOC(=O)NCCOC(=O)Nc2cccc3ccccc23)c2cccc(Cl)c2)c1 [Production Example 44] , output reported inhibition in vivo at 0.01 mg/kg.
68%

###

- Test system: platelet aggregation (PAF)
- method_description: Inhibitory action on PAF-induced rabbit platelet aggregation
- Type: cell-based
- details: Oryctolagus cuniculus, 3 × 10^-7 M, read-out: inhibitory percentage (platelet aggregation)
measurement_label: inhibition at 0.3 µM (%)
Expressed in %, but write only the number.

Illustrative cases are given below, each with its answer.
molecule="CCC[n+]1cc(Br)cc(C(=O)N(CCOC(=O)NCCOC(=O)Nc2cccc3ccccc23)c2cccc(OC)c2)c1 [Production Example 94]" study_target="platelet aggregation (PAF)" readout_units=% reading=99
molecule="CCC[n+]1cc(Cl)cc(C(=O)N(CCC(=O)NCCOC(=O)N2CCc3ccccc3C2)c2ccccc2)c1 [Production Example 88]" study_target="platelet aggregation (PAF)" readout_units=% reading=100
molecule="CCC[n+]1cc(Br)cc(C(=O)N(CCC(=O)NCCNS(=O)(=O)c2cccc3ccccc23)c2ccccc2)c1 [Production Example 109]" study_target="platelet aggregation (PAF)" readout_units=% reading=100
molecule="CCC[n+]1cc(Br)cc(C(=O)N(CCOC(=O)NCCOC(=O)Nc2cccc3ccccc23)c2ccc(Cl)cc2)c1 [Production Example 22]" study_target="platelet aggregation (PAF)" readout_units=% reading=100
molecule="CCCCCCCCCCCCOCCOCCOC(=O)NCCN(C(=O)c1cc(Br)c[n+](CC)c1)c1ccccc1 [Production Example 4]" study_target="platelet aggregation (PAF)" readout_units=% reading=100

// below: inhibition at 0.3 µM requested for another molecule
Input CCC[n+]1cc(Br)cc(C(=O)N(CCC(=O)NCCNS(=O)(=O)c2ccc3ccccc3c2)c2ccccc2)c1 [Production Example 98] , output reported inhibition at 0.3 µM.
100
